molecular target: MAGI2_5, Q86UL8; experiment: holdup assay; set-up: key: below the threshold = too weak to quantify, mostly under pKd 3.1 to 4; conditions: plain residues with an end cap or a label only (N-terminal biotin on a linker: ado-ado)
Sequence (Q86UL8 915-1017): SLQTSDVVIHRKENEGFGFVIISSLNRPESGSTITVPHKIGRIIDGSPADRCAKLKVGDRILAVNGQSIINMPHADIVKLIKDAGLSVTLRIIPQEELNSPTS
Assay readout: pKd

Solved cases (5 shown):
                         binder               result
0     APIAGFSSFV [SDK2, Q58EX2]                 4.44
1  SVTSERETNI [SLC16A7, O60669]  below the threshold
2   QRPYRRGSEI [KCNJ18, B7U540]  below the threshold
3    GTGYDRKDYV [CLDN3, O15551]  below the threshold
4      PYPTADHMLA [JUP, P14923]  below the threshold

# query: pKd of entry EDGESWEYQI [TRPV6, Q9H1D0]
below the threshold

Now try RSSGGDDFWF [KCNV1, Q6PIU1] .
below the threshold

Now try ARESQKVSHV [FAM110B, Q8TC76] .
3.66

Now try EIPAQSPTCV [FZD10, Q9ULW2] .
3.67

Now try DTKNYKQTSV [CRIPT, Q9P021] .
4.26

Now try QSYPSKHDYV [CLDN18, P56856] .
below the threshold

Now try NIAESLESLV [PTPRZ1, P23471] .
5.47

Now try KSRVAFFEEL [NF2, P35240;P35240-1] .
below the threshold

Now try NTANRRTTPV [CACNG2, Q9Y698] .
below the threshold

Now try SLNANEVEWF [RNF130, Q86XS8] .
3.51

Now try IDESKKEWLI [CNTNAP2, Q9UHC6] .
below the threshold
